- System: OVCAR-8
- ASSAY TEXT: NCI tumour cell line growth inhibition, 48 h
Calls of active or inactive are those of the source. Rule as the data show it: active = GI50 up to about 1.1 µM and inactive = higher.
Pick from active, inactive when you respond.

What outcome does the record of this test show for "N#Cc1c(NC(=S)NC(=O)c2ccccc2)nc2c(c1-c1ccccc1)CCCC2" ?
inactive

What outcome does the record of this test show for "C(=C\c1ccco1)/c1cccc(/C=C/c2ccco2)n1" ?
inactive

* * *

- Test system: SK-MEL-2
- ASSAY TEXT: NCI tumour cell line growth inhibition, 48 h
Activity calls are given as the source filed them. No stated cut-off is given here; in the data, active = GI50 up to about 1.1 µM and inactive = higher.
Pick from 1 for active, -1 for inactive when you respond.

What outcome does the record of this test show for CC(NNC(=O)CC(=O)N(C(=O)c1ccccc1)c1ccc(Cl)cc1)c1cc2ccccc2oc1=O (stereo unspecified) ?
-1
